# MIC E. coli W3110 Full MH 7.4 per record follows
- Tested on: E. coli W3110
- condition.parameters: Table S2; full MH, pH 7.4
- Source text: […]
Where a SMILES comes first, the peptide text is derived from it. [ ]: non-standard residue; d: D form. Nleu = CC(C)CNCC(=O)O; Nlys = NCCCCNCC(=O)O
Respond with the bare value in µg/mL.

CC(C)C[C@H](NC(=O)[C@H](CC(C)C)NC(=O)[C@H](CC(C)C)NC(=O)[C@H](CCCCN)NC(=O)[C@H](CC(C)C)NC(=O)[C@H](CC(C)C)NC(=O)CN(CCCCN)C(=O)[C@H](CC(C)C)NC(=O)[C@H](CC(C)C)NC(=O)CN(CCCCN)C(=O)CNCCCCN)C(N)=O [EB6, kkLLkLLKLLL] (H-[Nlys][Nlys]LL[Nlys]LLKLLL-NH2)    2

Per the record, CC(C)C[C@H](NC(=O)CN(CCCCN)C(=O)[C@H](CC(C)C)NC(=O)[C@H](CC(C)C)NC(=O)[C@H](CCCCN)NC(=O)[C@H](CC(C)C)NC(=O)[C@H](CC(C)C)NC(=O)[C@H](CCCCN)NC(=O)CNCCCCN)C(=O)N[C@@H](CC(C)C)C(=O)N(CC(N)=O)CC(C)C [EB2, kKLLKLLkLLl] (H-[Nlys]KLLKLL[Nlys]LL[Nleu]-NH2) has MIC E. coli W3110 Full MH 7.4 of 32

Notebook: CC(C)C[C@H](NC(=O)[C@H](CCCCN)NC(=O)CNCCCCN)C(=O)N[C@@H](CC(C)C)C(=O)N[C@@H](CCCCN)C(=O)N[C@@H](CC(C)C)C(=O)N[C@@H](CC(C)C)C(=O)N[C@@H](CCCCN)C(=O)N[C@@H](CC(C)C)C(=O)N[C@@H](CC(C)C)C(=O)N(CC(N)=O)CC(C)C [EB1] (H-[Nlys]KLLKLLKLL[Nleu]-NH2; N-terminus assumed) , MIC E. coli W3110 Full MH 7.4 read as 2

Documented MIC E. coli W3110 Full MH 7.4 of CC(C)C[C@H](NC(=O)CN(CC(C)C)C(=O)[C@H](CC(C)C)NC(=O)CN(CCCCN)C(=O)[C@H](CC(C)C)NC(=O)CN(CC(C)C)C(=O)[C@H](CCCCN)NC(=O)CN(CC(C)C)C(=O)[C@H](CC(C)C)NC(=O)CN(CCCCN)C(=O)[C@@H](N)CCCCN)C(N)=O [EB9, KkLlKlLkLlL] (H-K[Nlys]L[Nleu]K[Nleu]L[Nlys]L[Nleu]L-NH2) : 16

Reported MIC E. coli W3110 Full MH 7.4 ( CC(C)C[C@H](NC(=O)[C@H](CC(C)C)NC(=O)[C@H](CC(C)C)NC(=O)[C@@H](CCCCN)NC(=O)[C@H](CC(C)C)NC(=O)[C@H](CC(C)C)NC(=O)[C@@H](CCCCN)NC(=O)[C@H](CC(C)C)NC(=O)[C@H](CC(C)C)NC(=O)[C@@H](CCCCN)NC(=O)[C@H](N)CCCCN)C(N)=O [ln69, kkLLkLLkLLL, reference compound] (H-[dK][dK]LL[dK]LL[dK]LLL-NH2) ) = 4

###

- Tested on: K. pneumoniae NCTC418
- condition.parameters: NCTC418, 4 h, pH 8.5
Where a SMILES comes first, the peptide text is derived from it. [ ]: non-standard residue; d: D form. Nleu = CC(C)CNCC(=O)O; Nlys = NCCCCNCC(=O)O
experimental.readout: MIC K. pneumoniae NCTC418, full MH at pH 8.5

Reference set (2 entries):
CC(C)C[C@H](NC(=O)CN(CC(C)C)C(=O)[C@H](CCCCN)NC(=O)CNCCCCN)C(=O)N(CCCCN)CC(=O)N[C@@H](CC(C)C)C(=O)N(CC(=O)N[C@@H](CCCCN)C(=O)N(CC(=O)N[C@@H](CC(C)C)C(=O)N(CC(N)=O)CC(C)C)CC(C)C)CC(C)C [EB10, kKlLkLlKlLl] (H-[Nlys]K[Nleu]L[Nlys]L[Nleu]K[Nleu]L[Nleu]-NH2)    >32 ug/mL
CC(C)C[C@H](NC(=O)[C@H](CC(C)C)NC(=O)[C@H](CC(C)C)NC(=O)CN(CCCCN)C(=O)[C@H](CC(C)C)NC(=O)[C@H](CC(C)C)NC(=O)CN(CCCCN)C(=O)[C@H](CC(C)C)NC(=O)[C@H](CC(C)C)NC(=O)CN(CCCCN)C(=O)CNCCCCN)C(N)=O [EB7, kkLLkLLkLLL] (H-[Nlys][Nlys]LL[Nlys]LL[Nlys]LLL-NH2)    4 ug/mL

From here, focus on the item given below.
Recorded result, CC(C)C[C@H](NC(=O)CN(CC(C)C)C(=O)[C@H](CC(C)C)NC(=O)CN(CCCCN)C(=O)[C@H](CC(C)C)NC(=O)CN(CC(C)C)C(=O)[C@H](CCCCN)NC(=O)CN(CC(C)C)C(=O)[C@H](CC(C)C)NC(=O)CN(CCCCN)C(=O)[C@@H](N)CCCCN)C(N)=O [EB9, KkLlKlLkLlL] (H-K[Nlys]L[Nleu]K[Nleu]L[Nlys]L[Nleu]L-NH2) , MIC K. pneumoniae NCTC418, full MH at pH 8.5: >32 ug/mL

Data credit: paper PMC10714400
